# optical density listing for each entry below
Study system: Mouse ACVR2A (mouse, UniProt P27038 20-135, limits assumed); further: test concentration or dose not given here
Sequence (P27038 20-135 limits assumed): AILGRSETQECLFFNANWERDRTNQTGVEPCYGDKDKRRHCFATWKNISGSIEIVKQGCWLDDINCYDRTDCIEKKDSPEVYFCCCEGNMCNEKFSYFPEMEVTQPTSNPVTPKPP
Procedure details: ELISA
Give the value; after it, write the unit.

Past entries and their recorded results:
[[record]]
binder = "366_F07 (antibody, V domains shown, VH/VL only) VH: EVQLLESGGGLVQPGGSLRLSCAASGFTFSDYSMNWVRQAPGKGLEWVAGINYNSGYTSYADSVKGRFTISRDNSKNTLYLQMNSLRAEDTAVYYCARSANWHDTHLDYWGQGTLVTVSS VL: DIQMTQSPSSLSASVGDRVTITCRASQSIITYLNWYQQKPGKAPKLLIYAATSRASGVPSRFSGSGSGTDFTLTISSLQPEDFATYYCQQSYETPLTFGGGTKVEIK"
result = "2.53 OD"

[[record]]
binder = "370_H04 (antibody, V domains shown, VH/VL only) VH: EVQLLESGGGLVQPGGSLRLSCAASGFTFSSYSMNWVRQAPGKGLEWVSNINYNGGYTGYADSVKGRFTISRDNSKNTLYLQMNSLRAEDTAVYYCARGATWHDTHLDYWGQGTLVTVSS VL: DIQMTQSPSSLSASVGDRVTITCRASQSILSYVNWYQQKPGKAPKLLIYAATSRASGVPSRFSGSGSGTDFTLTISSLQPEDFATYYCQQSYDLPLTFGGGTKVEIK"
result = "3.56 OD"

[[record]]
binder = "367_F09 (antibody, V domains shown, VH/VL only) VH: EVQLLESGGGLVQPGGSLRLSCAASGFTFDSYSMHWVRQAPGKGLEWVAGINYNGGYTSYADSVKGRFTISRDNSKNTLYLQMNSLRAEDTAVYYCARGATWHDTHLDYWGQGTLVTVSS VL: DIQMTQSPSSLSASVGDRVTITCRASQSILTYLNWYQQKPGKAPKLLIYAATSLASGVPSRFSGSGSGTDFTLTISSLQPEDFATYYCQQSDSNPLTFGGGTKVEIK"
result = "1.82 OD"

[[record]]
binder = "366_E10 (antibody, V domains shown, VH/VL only) VH: EVQLLESGGGLVQPGGSLRLSCAASGFTFDSYGMNWVRQAPGKGLEWVSGINYNGGYKGYADSVKGRFTISRDNSKNTLYLQMNSLRAEDTAVYYCARSANWHDTHLDYWGQGTLVTVSS VL: DIQMTQSPSSLSASVGDRVTITCRASQSILSYVNWYQQKPGKAPKLVIYAATSRHSGVPSRFSGSGSGTDFTLTISSLQPEDFATYYCQQSYSLPLTFGGGTKVEIK"
result = "2.39 OD"


Now consider a different binder.
Input: Find the recorded optical density belonging to 365_A12 (antibody, V domains shown, VH/VL only) VH: EVQLLESGGGLVQPGGSLRLSCAASGFTFSSYGMHWVRQAPGKGLEWVAGINYNGGYTSYADSVKGRFTISRDNSKNTLYLQMNSLRAEDTAVYYCAKSANWHDTHLDYWGQGTLVTVSS VL: DIQMTQSPSSLSASVGDRVTITCRASQSILTYVNWYQQKPGKAPKLLIYAATSRHSGVPSRFSGSGSGTDFTLTISSLQPEDFATYYCQQSYENPLTFGGGTKVEIK and report it.
Output: 2.87 OD
